# SUBJECT_OF_TEST: PYCR1 (recombinant human His-PYCR1) (Homo sapiens)
# Sequence (P32322 2-319): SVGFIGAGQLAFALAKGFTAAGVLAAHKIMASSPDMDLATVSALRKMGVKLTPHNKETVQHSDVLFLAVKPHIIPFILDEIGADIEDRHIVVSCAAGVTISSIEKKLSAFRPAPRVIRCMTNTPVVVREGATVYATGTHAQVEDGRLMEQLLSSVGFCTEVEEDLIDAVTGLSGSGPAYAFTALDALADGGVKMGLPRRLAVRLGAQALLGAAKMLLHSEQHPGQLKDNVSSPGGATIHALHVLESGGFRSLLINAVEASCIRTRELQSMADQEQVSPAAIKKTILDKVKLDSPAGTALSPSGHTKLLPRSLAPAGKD
# TEST_SUMMARY: surface plasmon resonance
EXPERIMENTAL_ENDPOINT: pKd
Scale note: pKd = -log10(concentration in M).

The reported pKd of the molecule Nc1ncnc2c([C@@H]3O[C@H](CO)[C@@H](O)[C@H]3O)c[nH]c12 was 5.10

Hey, just so you know, these numbers are from paper PMC12309613.
